assayTarget: JAK3 (Homo sapiens (Human))
testProtocol: Enzyme assay (Assay Example^a 1), JAK3
Format: biochemical
conditions: ATP 100 μM
Exercise: state measured IC50 for each of the compounds provided.

Look at each compound and report its IC50.
1. O=C(NCC(O)(c1ccccc1)C(F)(F)F)[C@H]1CC[C@H](c2nnn3cnc4[nH]ccc4c23)CC1 (some centres unmarked)
2. N#CCCNC(=O)[C@H]1CC[C@H](c2nnn3cnc4[nH]ccc4c23)CC1
3. O=S(=O)(O)C[C@H]1CC[C@H](c2nnn3cnc4[nH]ccc4c23)CC1
4. O=S(=O)(C[C@H]1CC[C@H](c2nnn3cnc4[nH]ccc4c23)CC1)c1ccc(F)cc1
5. N#CC1CN(C(=O)[C@H]2CC[C@H](c3nnn4cnc5[nH]ccc5c34)CC2)C1

> 1 µM
> 1 µM
> 1 µM
0.74 µM
> 1 µM

----------
Exercise: state measured IC50 for each of the molecules provided.
assayTarget: JAK3 (Homo sapiens (Human), UniProt P52333)
Sequence (P52333 whole entry): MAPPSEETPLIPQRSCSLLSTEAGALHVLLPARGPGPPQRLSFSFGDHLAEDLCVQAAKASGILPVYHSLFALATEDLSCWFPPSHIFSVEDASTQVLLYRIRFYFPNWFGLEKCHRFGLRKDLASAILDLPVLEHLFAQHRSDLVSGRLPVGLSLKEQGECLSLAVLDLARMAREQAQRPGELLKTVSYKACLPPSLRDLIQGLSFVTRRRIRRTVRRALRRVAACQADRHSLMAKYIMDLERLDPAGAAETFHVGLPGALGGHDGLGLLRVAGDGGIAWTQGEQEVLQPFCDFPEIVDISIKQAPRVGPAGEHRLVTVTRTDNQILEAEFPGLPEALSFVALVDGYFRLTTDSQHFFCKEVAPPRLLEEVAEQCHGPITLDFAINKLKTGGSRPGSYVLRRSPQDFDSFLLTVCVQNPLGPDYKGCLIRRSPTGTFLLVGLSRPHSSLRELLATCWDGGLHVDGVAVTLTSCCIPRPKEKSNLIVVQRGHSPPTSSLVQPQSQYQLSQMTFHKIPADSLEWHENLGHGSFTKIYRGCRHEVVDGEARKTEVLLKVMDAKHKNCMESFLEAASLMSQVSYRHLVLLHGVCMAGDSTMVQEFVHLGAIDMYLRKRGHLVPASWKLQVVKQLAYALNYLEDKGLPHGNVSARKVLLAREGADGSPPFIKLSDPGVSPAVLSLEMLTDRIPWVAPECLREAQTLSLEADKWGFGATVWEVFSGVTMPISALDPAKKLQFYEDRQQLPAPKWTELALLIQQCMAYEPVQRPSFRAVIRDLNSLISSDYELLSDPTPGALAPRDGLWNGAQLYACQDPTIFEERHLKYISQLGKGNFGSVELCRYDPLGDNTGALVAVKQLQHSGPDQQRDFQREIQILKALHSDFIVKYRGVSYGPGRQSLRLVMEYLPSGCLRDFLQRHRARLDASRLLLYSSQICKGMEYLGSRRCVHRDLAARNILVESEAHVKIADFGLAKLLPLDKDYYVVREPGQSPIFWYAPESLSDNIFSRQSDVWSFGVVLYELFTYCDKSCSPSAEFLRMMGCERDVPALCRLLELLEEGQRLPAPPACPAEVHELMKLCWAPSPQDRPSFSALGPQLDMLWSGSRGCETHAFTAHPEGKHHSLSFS
testProtocol: Enzyme assay (Assay Example^a 1), JAK3
Format: biochemical
conditions: ATP 100 μM
Answers are plain numbers, in µM.

Reference set (3 entries):
molecule	IC50, µM
O=C(NC[C@@H](O)c1ccccc1)[C@H]1CC[C@H](c2nnn3cnc4[nH]ccc4c23)CC1	0.35
Fc1ccc(NC[C@H]2CC[C@H](c3nnn4cnc5[nH]ccc5c34)CC2)cc1F	0.49
CNC[C@H]1CC[C@H](c2nnn3cnc4[nH]ccc4c23)CC1	0.8

Entry under review: N#CC[C@H]1CC[C@H](c2nnn3cnc4[nH]ccc4c23)CC1 [435b] . Reported IC50?
0.032

----------
Exercise: state measured log10 IC50 for each of the compounds provided.
assayTarget: JAK2 (Homo sapiens (Human), UniProt O60674)
testProtocol: JAK2 enzyme assay (Assay Example^b 1)
conditions: IC50 (μM) JAK2, Table^b 80; ATP 100 μM
For clarity, the numbers are log10 values of IC50 expressed in µM.

Reference set (8 entries):
compound	log10 IC50
O=C1NCc2cnc3[nH]ccc3c2N1C1CCN(S(=O)(=O)Cc2ccccc2)CC1 [compound 60]	-0.32
O=c1ccn(C2CCN(Cc3ccc(Br)o3)CC2)c2c1cnc1[nH]ccc12 [compound 80]	-1.70
O=C1NCc2cnc3[nH]ccc3c2N1C1CCN(Cc2cncs2)CC1 [compound 66]	-0.85
C[C@@H]1CCN(Cc2cccc(C#N)c2)C[C@@H]1n1ccc(=O)c2cnc3[nH]ccc3c21 (racemic) [compound 42]	-0.82
O=C1NCc2cnc3[nH]ccc3c2N1C1CCNCC1 [compound 68]	0.38
O=c1ccn(C2CCN(Cc3ccc(C(F)(F)F)cc3)CC2)c2c1cnc1[nH]ccc12 [Synthetic Example^b 56]	-0.62
C[C@@H]1CCN(Cc2ccccc2)C[C@@H]1n1ccc(=O)c2cnc3[nH]cc(Br)c3c21 (racemic) [compound 21]	0.11
O=C(Nc1nncs1)N1CCC(N2C(=O)NCc3cnc4[nH]ccc4c32)CC1 [compound 64]	-1.70

Reported log10 IC50 for JAK2 (Homo sapiens (Human), UniProt O60674), given O=C(c1ccc(Cl)s1)N1CCC(n2ccc(=O)c3cnc4[nH]ccc4c32)CC1 [compound 87] ?
-0.42

----------
assayTarget: JAK1 (Homo sapiens (Human), UniProt P23458)
testProtocol: Enzyme assay (Assay Example^a 1), JAK1
Format: biochemical
conditions: ATP 100 μM
The threshold is 0.008 µM. Values of IC50 beneath it are tagged Y; values meeting or exceeding it are tagged N.

compound	answerLabel
OC12CC3CC(C1)C(NC[C@H]1CC[C@H](c4nnn5cnc6[nH]ccc6c45)CC1)C(C3)C2 (some centres unmarked) [compound 304]	N
Clc1n[nH]c2ccc(CN3CCC(c4nnn5cnc6[nH]ccc6c45)CC3)cc12	N
CN(C)[C@H]1CC[C@H](c2nnn3cnc4[nH]ccc4c23)CC1 [397b]	N
FC1(F)CCN(C[C@H]2CC[C@H](c3nnn4cnc5[nH]ccc5c34)CC2)C1	Y

Strictly below 0.008 µM: is that where IC50 of O=S(=O)(C[C@H]1CC[C@H](c2nnn3cnc4[nH]ccc4c23)CC1)C(F)(F)F sits?
Y

Strictly below 0.008 µM: is that where IC50 of N#Cc1cc(NC[C@H]2CC[C@H](c3nnn4cnc5[nH]ccc5c34)CC2)ccc1F sits?
N

Strictly below 0.008 µM: is that where IC50 of Fc1ccc(NC[C@H]2CC[C@H](c3nnn4cnc5[nH]ccc5c34)CC2)cc1C(F)(F)F sits?
N

Strictly below 0.008 µM: is that where IC50 of CC(C#N)[C@H]1CC[C@@H](c2nnn3cnc4[nH]ccc4c23)CC1 (some centres unmarked) [439a] sits?
N

----------
assayTarget: JAK2 (Homo sapiens (Human))
testProtocol: JAK2 enzyme assay (Assay Example^b 1)
conditions: IC50 (μM) JAK2
Exercise: state measured IC50 for each of the compounds provided.
Answers are plain numbers, in µM.

compound	IC50 (µM)
C[C@@H]1CCN(S(=O)(=O)c2cccc(C(F)(F)F)c2)C[C@@H]1n1ccc(=O)c2cnc3[nH]ccc3c21 (racemic)	0.12

Consider the record given below.
Entry under review: C[C@@H]1CCN(Cc2ccccc2)C[C@@H]1n1cc(Br)c(=O)c2cnc3[nH]ccc3c21 (racemic) . Reported IC50?
0.74

----------
assayTarget: JAK3 (Homo sapiens (Human))
testProtocol: Enzyme assay (Assay Example^a 1), JAK3
Assay type: biochemical
conditions: ATP 100 μM
Exercise: state measured IC50 for each of the compounds provided.

Reference set (7 entries):
compound	assayMetric	reportedResult
N#CCC(=O)N(CC#N)C[C@H]1CC[C@H](c2nnn3cnc4[nH]ccc4c23)CC1 [compound 408]	IC50	0.22 µM
N#CCOc1ccc(CN2CCC(c3nnn4cnc5[nH]ccc5c34)CC2)cc1 [compound 213]	IC50	> 1 µM
C=C1CCC(c2nnn3cnc4[nH]ccc4c23)CC1 [compound 433]	IC50	0.71 µM
c1cn(-c2ccc(CN3CCC(c4nnn5cnc6[nH]ccc6c45)CC3)cc2)cn1 [compound 221]	IC50	> 1 µM
Fc1cc(NC[C@H]2CC[C@H](c3nnn4cnc5[nH]ccc5c34)CC2)cc(F)c1F [compound 250]	IC50	> 1 µM
N#Cc1cc(NC[C@H]2CC[C@H](c3nnn4cnc5[nH]ccc5c34)CC2)ccc1Cl [compound 263]	IC50	> 1 µM
OC1(CNC[C@H]2CC[C@H](c3nnn4cnc5[nH]ccc5c34)CC2)CCCCC1 [compound 313]	IC50	> 1 µM

Entry under review: O[C@@H]1Cc2ccccc2[C@@H]1NC1CCC(c2nnn3cnc4[nH]ccc4c23)CC1 (mixture of isomers) [compound 379] . Reported IC50?
0.66 µM

----------
assayTarget: JAK1 (Homo sapiens (Human), UniProt P23458)
testProtocol: Enzyme assay (Assay Example^a 1), JAK1
Format: biochemical
conditions: ATP 100 μM
Exercise: state measured IC50 for each of the compounds provided.
Answers are plain numbers, in µM.

Reference set (4 entries):
compound	measurementUnit	reportedResult
N#CCc1ccc(NC[C@H]2CC[C@H](c3nnn4cnc5[nH]ccc5c34)CC2)cc1	µM	0.011
O=C(NCCO)[C@H]1CC[C@H](c2nnn3cnc4[nH]ccc4c23)CC1	µM	0.026
OC1CN(C[C@H]2CC[C@H](c3nnn4cnc5[nH]ccc5c34)CC2)C1	µM	0.0017
CSc1ccc(C(O)(CN[C@H]2CC[C@H](c3nnn4cnc5[nH]ccc5c34)CC2)C(F)(F)F)cc1 (stereo partly drawn) [386b]	µM	0.0017

Look at each compound and report its IC50.
1. OC1(c2ccc(Cl)c(C(F)(F)F)c2)CCN(C[C@H]2CC[C@H](c3nnn4cnc5[nH]ccc5c34)CC2)CC1
2. c1cc2c(ncn3nnc([C@H]4CC[C@H](CNC5COC5)CC4)c23)[nH]1

[0.0076, 0.022]

Look at each compound and report its IC50.
1. CC(=O)N[C@@H]1CCN(C[C@H]2CC[C@H](c3nnn4cnc5[nH]ccc5c34)CC2)C1
2. FC(F)(F)CN[C@H]1CC[C@H](c2nnn3cnc4[nH]ccc4c23)CC1 [395b]
3. N#CCN[C@H]1CC[C@H](c2nnn3cnc4[nH]ccc4c23)CC1 [393b]
4. Clc1ccc(CN2CCC(c3nnn4cnc5[nH]ccc5c34)CC2)c(Cl)n1
5. OC1(CNC[C@H]2CC[C@H](c3nnn4cnc5[nH]ccc5c34)CC2)CCCCC1

1: 0.0048; 2: 0.0022; 3: 0.0062; 4: 0.0043; 5: 0.0084

----------
assayTarget: Tyk2 (Homo sapiens (Human))
Sequence (P29597 whole entry): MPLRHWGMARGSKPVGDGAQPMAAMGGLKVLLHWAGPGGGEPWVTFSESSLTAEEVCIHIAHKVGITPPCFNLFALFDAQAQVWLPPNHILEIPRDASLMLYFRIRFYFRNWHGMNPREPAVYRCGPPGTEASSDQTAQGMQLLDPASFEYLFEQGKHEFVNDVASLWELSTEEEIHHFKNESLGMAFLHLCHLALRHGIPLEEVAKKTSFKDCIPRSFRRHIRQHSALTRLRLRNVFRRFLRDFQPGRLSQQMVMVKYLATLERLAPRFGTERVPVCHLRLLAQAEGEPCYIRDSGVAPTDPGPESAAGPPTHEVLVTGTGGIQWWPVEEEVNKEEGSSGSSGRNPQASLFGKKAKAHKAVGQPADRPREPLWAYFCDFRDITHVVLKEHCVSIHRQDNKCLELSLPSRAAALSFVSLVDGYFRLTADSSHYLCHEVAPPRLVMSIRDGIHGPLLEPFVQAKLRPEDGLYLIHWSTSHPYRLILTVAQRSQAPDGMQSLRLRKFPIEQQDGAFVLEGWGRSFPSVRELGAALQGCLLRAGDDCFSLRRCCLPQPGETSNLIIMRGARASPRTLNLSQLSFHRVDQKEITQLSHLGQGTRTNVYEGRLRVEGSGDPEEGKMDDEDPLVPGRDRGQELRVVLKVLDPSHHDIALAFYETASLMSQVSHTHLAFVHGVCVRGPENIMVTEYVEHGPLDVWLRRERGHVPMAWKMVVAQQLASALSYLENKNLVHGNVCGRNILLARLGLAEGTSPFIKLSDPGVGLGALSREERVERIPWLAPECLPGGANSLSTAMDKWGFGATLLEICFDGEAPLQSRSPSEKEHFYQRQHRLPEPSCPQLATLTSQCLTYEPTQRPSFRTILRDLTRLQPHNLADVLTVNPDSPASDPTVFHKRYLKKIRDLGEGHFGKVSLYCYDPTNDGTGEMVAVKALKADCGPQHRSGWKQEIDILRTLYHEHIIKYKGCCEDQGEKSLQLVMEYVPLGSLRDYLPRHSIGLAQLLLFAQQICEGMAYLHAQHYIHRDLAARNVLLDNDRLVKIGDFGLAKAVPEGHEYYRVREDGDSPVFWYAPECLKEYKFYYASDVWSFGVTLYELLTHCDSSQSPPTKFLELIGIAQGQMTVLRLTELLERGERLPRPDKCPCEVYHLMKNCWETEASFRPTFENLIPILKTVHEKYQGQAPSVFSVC
testProtocol: Enzyme assay (Assay Example^a 1), Tyk2
Assay type: biochemical
conditions: ATP 100 μM; Table^a 154
Exercise: state measured IC50 for each of the compounds provided.
One number for each entry, in µM.

compound	assayTarget	measurementUnit	IC50
Fc1ccc(CN2CCC(c3nnn4cnc5[nH]ccc5c34)CC2)c(Cl)c1	Tyk2 (Homo sapiens (Human))	µM	0.34
Fc1ccc(CN[C@H]2CC[C@@H](c3nnn4cnc5[nH]ccc5c34)CC2)cc1 [195a]	Tyk2 (Homo sapiens (Human))	µM	0.31
c1ccc(CCCN[C@H]2CC[C@H](c3nnn4cnc5[nH]ccc5c34)CC2)cc1 [136b]	Tyk2 (Homo sapiens (Human))	µM	0.45

Entry under review: O=C(OCc1ccccc1)N1CCCC(c2nnn3cnc4[nH]ccc4c23)C1 (racemic) . Reported IC50?
2.2
